Target: recombinant human HDAC3 (Homo sapiens, UniProt O15379)
Sequence (O15379 whole entry, canonical isoform): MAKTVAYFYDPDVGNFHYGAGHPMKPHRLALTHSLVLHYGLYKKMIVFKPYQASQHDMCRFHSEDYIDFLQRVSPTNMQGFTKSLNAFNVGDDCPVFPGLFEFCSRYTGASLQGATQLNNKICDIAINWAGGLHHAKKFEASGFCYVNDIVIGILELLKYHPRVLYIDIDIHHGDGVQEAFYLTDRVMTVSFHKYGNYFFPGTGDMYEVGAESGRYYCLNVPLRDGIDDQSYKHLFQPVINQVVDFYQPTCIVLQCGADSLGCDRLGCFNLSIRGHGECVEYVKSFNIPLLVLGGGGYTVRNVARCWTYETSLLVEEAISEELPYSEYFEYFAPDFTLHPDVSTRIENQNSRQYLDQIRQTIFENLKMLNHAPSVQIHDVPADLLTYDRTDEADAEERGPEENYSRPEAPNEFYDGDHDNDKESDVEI
Sequence (Q9Y618 395-489 partner limits assumed): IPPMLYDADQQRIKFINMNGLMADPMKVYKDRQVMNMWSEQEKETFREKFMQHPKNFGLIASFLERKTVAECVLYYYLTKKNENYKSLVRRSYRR
Experiment: Recombinant HDAC isoform inhibition, HDAC3
Square brackets hold non-standard residues; d marks the D form. Peptide text beside a SMILES is read from it. * marks the point of attachment. Asu = N[C@@H](CCCCCC(=O)O)C(=O)O; β3hL = CC(C)C[C@H](N)CC(=O)O; NHOH = ON*
READOUT_NAME: IC50 (nM)
One number for each entry, in nM.

Incoming: Fill in the blank: the reported IC50 of CC(C)C[C@H]1CC(=O)N2CCC[C@H]2C(=O)N[C@@H](CCCCCC(=O)NO)C(=O)N[C@@H](Cc2c[nH]c3ccccc23)C(=O)N1 [4a] (cyclo([Asu](NHOH)W[β3hL]P)) is ____.
Outgoing: 35

* * *

Target: recombinant human HDAC1 (Homo sapiens)
Sequence (Q13547 whole entry, canonical isoform): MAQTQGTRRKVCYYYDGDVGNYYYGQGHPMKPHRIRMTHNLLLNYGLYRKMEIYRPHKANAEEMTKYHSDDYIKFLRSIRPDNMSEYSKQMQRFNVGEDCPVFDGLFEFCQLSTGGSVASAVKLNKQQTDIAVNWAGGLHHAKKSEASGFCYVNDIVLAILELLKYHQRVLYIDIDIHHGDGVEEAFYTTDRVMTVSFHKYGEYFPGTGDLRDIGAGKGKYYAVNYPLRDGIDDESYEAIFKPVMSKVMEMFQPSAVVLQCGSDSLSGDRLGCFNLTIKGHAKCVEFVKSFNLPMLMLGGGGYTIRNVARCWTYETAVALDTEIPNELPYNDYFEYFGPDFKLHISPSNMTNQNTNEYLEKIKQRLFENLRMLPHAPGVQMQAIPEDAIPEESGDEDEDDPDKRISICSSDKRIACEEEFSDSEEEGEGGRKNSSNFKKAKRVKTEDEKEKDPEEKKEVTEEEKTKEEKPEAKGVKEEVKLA
Assay: Recombinant HDAC isoform inhibition, HDAC1
Square brackets hold non-standard residues; d marks the D form. Peptide text beside a SMILES is read from it. * marks the point of attachment. Asu = N[C@@H](CCCCCC(=O)O)C(=O)O; β3hL = CC(C)C[C@H](N)CC(=O)O; NHOH = ON*
READOUT_NAME: IC50 (nM)
Give bare numbers, in nM.

CCC(=O)CCCCC[C@@H]1NC(=O)[C@H](C)NC(=O)C[C@H](CC(C)C)NC(=O)[C@H](Cc2c[nH]c3ccccc23)NC1=O [compound 3]    35

Now, please, on to the next compound.
Incoming: Fill in the blank: the reported IC50 of CC(C)C[C@H]1CC(=O)N2CCC[C@H]2C(=O)N[C@@H](CCCCCC(=O)NO)C(=O)N[C@@H](Cc2c[nH]c3ccccc23)C(=O)N1 [4a] (cyclo([Asu](NHOH)W[β3hL]P)) is ____.
Outgoing: 0.6

* * *

Target: recombinant human HDAC10 (Homo sapiens, UniProt Q969S8)
Sequence (Q969S8 whole entry, canonical isoform): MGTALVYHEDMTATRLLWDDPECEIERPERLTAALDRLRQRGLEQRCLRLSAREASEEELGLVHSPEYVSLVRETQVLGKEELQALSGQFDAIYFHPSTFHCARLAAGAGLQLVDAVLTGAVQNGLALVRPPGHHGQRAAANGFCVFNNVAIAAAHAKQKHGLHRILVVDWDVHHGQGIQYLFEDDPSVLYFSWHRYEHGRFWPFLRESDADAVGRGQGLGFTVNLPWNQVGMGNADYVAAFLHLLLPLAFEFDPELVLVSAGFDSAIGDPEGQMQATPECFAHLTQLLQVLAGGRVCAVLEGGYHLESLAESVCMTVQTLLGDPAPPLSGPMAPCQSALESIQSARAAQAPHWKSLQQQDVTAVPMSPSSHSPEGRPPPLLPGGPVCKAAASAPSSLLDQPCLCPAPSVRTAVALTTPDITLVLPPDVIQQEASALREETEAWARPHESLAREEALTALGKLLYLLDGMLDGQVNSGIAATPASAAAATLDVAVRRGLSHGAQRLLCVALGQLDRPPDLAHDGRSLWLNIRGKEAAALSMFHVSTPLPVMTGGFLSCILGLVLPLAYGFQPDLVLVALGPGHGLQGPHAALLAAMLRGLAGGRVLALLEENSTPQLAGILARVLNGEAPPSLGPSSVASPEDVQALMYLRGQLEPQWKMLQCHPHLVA
Assay: Recombinant HDAC isoform inhibition, HDAC10
Square brackets hold non-standard residues; d marks the D form. Peptide text beside a SMILES is read from it. * marks the point of attachment. Asu = N[C@@H](CCCCCC(=O)O)C(=O)O; β3hL = CC(C)C[C@H](N)CC(=O)O; NHOH = ON*
Give IC50 for every item shown.
Give bare numbers, in µM.

CCC(=O)CCCCC[C@@H]1NC(=O)[C@H](C)NC(=O)C[C@H](CC(C)C)NC(=O)[C@H](Cc2c[nH]c3ccccc23)NC1=O    0.02

Hi team, please reply with IC50 for each item in this list.
1. CC(C)C[C@H]1CC(=O)N[C@@H](C)C(=O)N[C@@H](CCCCCC(=O)NO)C(=O)N[C@@H](Cc2c[nH]c3ccccc23)C(=O)N1 [3a] (cyclo([Asu](NHOH)W[β3hL]A))
2. CC(C)C[C@H]1CC(=O)N[C@@H](C)C(=O)N[C@@H](CCCCCC(=O)O)C(=O)N[C@@H](Cc2c[nH]c3ccccc23)C(=O)N1 [3b] (cyclo([Asu]W[β3hL]A))
3. CCC(=O)CCCCC[C@@H]1NC(=O)[C@H](C)N(C)C(=O)C[C@H](CC(C)C)NC(=O)[C@H](Cc2c[nH]c3ccccc23)NC1=O

Outgoing:
[0.0002, 0.28, 0.028]

* * *

Target: recombinant human HDAC6 (Homo sapiens, UniProt Q9UBN7)
Sequence (Q9UBN7 1-1215): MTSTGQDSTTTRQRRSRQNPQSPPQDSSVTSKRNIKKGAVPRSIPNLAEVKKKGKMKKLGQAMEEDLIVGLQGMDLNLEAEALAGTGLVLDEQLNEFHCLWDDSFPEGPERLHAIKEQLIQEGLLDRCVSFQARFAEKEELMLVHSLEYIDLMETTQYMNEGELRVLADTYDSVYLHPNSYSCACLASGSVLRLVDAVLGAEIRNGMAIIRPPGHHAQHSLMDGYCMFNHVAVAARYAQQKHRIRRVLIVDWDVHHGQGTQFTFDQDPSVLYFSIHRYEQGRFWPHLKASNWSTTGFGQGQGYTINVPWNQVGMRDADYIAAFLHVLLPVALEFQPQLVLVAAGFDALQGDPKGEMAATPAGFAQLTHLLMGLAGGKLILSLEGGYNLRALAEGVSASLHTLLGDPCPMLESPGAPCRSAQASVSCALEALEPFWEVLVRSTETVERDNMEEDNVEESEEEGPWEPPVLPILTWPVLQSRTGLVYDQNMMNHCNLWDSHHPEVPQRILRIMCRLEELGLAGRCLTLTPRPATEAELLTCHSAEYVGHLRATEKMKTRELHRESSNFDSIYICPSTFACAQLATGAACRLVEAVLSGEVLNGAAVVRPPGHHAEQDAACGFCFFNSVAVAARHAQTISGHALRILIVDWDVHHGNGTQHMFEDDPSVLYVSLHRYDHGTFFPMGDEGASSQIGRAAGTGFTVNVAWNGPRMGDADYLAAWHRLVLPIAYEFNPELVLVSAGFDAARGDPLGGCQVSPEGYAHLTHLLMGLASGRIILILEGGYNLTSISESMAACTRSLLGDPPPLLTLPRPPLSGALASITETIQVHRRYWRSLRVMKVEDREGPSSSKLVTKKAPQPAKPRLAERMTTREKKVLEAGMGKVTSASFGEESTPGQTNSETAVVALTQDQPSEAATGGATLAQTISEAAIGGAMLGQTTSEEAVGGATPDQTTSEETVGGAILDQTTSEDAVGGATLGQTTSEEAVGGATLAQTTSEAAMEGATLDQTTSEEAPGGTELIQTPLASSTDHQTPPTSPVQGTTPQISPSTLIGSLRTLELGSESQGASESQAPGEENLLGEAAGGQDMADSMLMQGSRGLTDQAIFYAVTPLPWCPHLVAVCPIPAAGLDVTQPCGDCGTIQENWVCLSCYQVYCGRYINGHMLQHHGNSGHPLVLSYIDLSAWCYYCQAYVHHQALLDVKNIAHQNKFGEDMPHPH
Experiment: Recombinant HDAC isoform inhibition, HDAC6
Type: biochemical
Square brackets hold non-standard residues; d marks the D form. Peptide text beside a SMILES is read from it. * marks the point of attachment. Asu = N[C@@H](CCCCCC(=O)O)C(=O)O; β3hL = CC(C)C[C@H](N)CC(=O)O; NHOH = ON*
READOUT_NAME: IC50 (µM)
Numbers only, in µM.

Incoming: Fill in the blank: the reported IC50 of CC(C)C[C@H]1CC(=O)N2CCC[C@H]2C(=O)N[C@@H](CCCCCC(=O)NO)C(=O)N[C@@H](Cc2c[nH]c3ccccc23)C(=O)N1 [4a] (cyclo([Asu](NHOH)W[β3hL]P)) is ____.
Outgoing: 0.035

Values were extracted from paper PMC2751792.
